Molecular target: human TAS1R2-WT/TAS1R3-L823F (Homo sapiens, UniProt Q7RTX0+Q8TE23, L823F)
Construct: expressed in transfected cells; host or cells: HEK293T stably expressing Gα16gust44
Sequence (Q8TE23 20-839): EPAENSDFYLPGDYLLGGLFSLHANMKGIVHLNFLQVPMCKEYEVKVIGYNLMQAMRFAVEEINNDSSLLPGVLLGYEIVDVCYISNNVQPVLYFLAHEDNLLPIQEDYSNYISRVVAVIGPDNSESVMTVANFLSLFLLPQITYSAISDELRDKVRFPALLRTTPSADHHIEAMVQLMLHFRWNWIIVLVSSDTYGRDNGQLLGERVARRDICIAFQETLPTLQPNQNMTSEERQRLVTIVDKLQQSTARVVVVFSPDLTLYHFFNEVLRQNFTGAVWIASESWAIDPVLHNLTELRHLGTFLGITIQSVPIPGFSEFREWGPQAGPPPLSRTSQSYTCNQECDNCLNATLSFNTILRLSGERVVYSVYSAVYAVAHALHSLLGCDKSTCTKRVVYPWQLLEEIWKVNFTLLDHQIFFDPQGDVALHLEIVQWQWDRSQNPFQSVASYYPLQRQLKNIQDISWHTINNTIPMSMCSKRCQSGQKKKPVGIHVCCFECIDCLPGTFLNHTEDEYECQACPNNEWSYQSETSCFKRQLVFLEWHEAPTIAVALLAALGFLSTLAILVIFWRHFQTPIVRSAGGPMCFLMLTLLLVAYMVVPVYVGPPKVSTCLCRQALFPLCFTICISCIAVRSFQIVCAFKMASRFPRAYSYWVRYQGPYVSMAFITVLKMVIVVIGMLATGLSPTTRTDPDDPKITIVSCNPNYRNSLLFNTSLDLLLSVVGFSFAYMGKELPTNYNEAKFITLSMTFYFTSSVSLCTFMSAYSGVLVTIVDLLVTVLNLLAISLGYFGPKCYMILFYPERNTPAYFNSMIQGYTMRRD
Sequence (Q7RTX0 21-852 L823F): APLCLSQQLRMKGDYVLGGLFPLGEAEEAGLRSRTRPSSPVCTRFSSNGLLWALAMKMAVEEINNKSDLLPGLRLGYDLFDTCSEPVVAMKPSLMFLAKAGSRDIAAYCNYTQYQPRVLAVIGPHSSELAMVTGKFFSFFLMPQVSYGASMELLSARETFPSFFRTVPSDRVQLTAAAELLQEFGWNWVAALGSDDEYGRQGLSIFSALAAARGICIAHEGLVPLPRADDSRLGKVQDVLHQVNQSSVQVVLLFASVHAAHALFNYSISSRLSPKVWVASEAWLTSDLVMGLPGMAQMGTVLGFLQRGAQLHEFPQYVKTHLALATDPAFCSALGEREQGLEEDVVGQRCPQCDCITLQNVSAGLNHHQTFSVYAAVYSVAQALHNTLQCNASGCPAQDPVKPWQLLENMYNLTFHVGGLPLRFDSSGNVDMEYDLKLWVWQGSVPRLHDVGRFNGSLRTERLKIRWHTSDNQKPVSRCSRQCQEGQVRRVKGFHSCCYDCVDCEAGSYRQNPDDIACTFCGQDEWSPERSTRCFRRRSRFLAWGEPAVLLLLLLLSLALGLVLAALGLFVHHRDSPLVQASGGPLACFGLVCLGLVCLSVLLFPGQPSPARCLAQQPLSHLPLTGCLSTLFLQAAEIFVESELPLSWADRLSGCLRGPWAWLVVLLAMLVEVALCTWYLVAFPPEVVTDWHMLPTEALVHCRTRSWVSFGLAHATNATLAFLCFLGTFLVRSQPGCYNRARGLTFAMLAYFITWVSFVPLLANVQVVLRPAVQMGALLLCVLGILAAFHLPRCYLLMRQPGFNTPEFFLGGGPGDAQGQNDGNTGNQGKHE
Assay: Calcium mobilisation assay, TAS1R2-WT with TAS1R3 variant L823F
Type: cell-based
Settings: maximal signal amplitude
So I've got a bunch of compounds here, and I need their Max ΔF/F0 values.
Answer with the value's number alone.

Field request: Max ΔF/F0 | item: COC(=O)[C@H](Cc1ccccc1)NC(=O)[C@H](CC(=O)O)NCCC(C)(C)C [Neotame]
0.76

# input compound: C=C1C[C@@]23CC[C@H]4[C@@](C)(CCC[C@@]4(C)C(=O)O[C@@H]4O[C@H](CO)[C@@H](O)[C@H](O[C@@H]5O[C@H](CO)[C@@H](O)[C@H](O)[C@H]5O)[C@H]4O[C@@H]4O[C@H](CO)[C@@H](O)[C@H](O)[C@H]4O)[C@@H]2CC[C@]1(O[C@@H]1O[C@H](CO)[C@@H](O)[C@H](O[C@@H]2O[C@H](CO)[C@@H](O)[C@H](O)[C@H]2O)[C@H]1O[C@@H]1O[C@H](CO)[C@@H](O)[C@H](O)[C@H]1O)C3 [Rebaudioside M, rebaudioside M] ; wanted: its Max ΔF/F0
1.35

Which Max ΔF/F0 is reported for this compound? C[C@H](CC[C@@H](O[C@@H]1O[C@H](CO[C@@H]2O[C@H](CO)[C@@H](O)[C@H](O)[C@H]2O)[C@@H](O)[C@H](O)[C@H]1O[C@@H]1O[C@H](CO)[C@@H](O)[C@H](O)[C@H]1O)C(C)(C)O)[C@H]1CC[C@@]2(C)[C@@H]3CC=C4[C@@H](CC[C@H](O[C@@H]5O[C@H](CO[C@@H]6O[C@H](CO)[C@@H](O)[C@H](O)[C@H]6O)[C@@H](O)[C@H](O)[C@H]5O)C4(C)C)[C@]3(C)[C@H](O)C[C@]12C [Mogroside V, mogroside V]
1.18
